Would you kindly list Plant response rating, Purslane for each of these compounds?
# Test system: purslane (common purslane, Portulaca oleracea)
# Assay Name: Test D pre-/postemergence plant response
# Format: in vivo
# Experimental Parameters: Postemergence, 31 g ai/ha; scale 0 to 100
One number for each entry.

Completed entries (count: 3):
>>> numeric_result("COCCn1c(-c2cc(F)cc(F)c2)ncc(C(=O)C2=C(O)C3CCC(C3)C2=O)c1=O (stereo not shown) [Compound 243]")
35
>>> numeric_result("CCCCn1c(-c2cc(F)cc(F)c2)ncc(C(=O)C2=C(O)C3CCC(C3)C2=O)c1=O (stereo not shown) [Compound 245]")
0
>>> numeric_result("COCCn1c(-c2cccc(C)c2)ncc(C(=O)C2=C(O)C3CCC(C3)C2=O)c1=O (stereo not shown) [Compound 233]")
30

**Q:** // query Plant response rating, Purslane value for entry O=C1CCCC(O)=C1C(=O)c1cnc(-c2ccccc2)n(CC2CCCO2)c1=O (stereo not shown) [Compound 59]
**A:** 35
